All figures here come from PubChem BioAssay AID2060511.

Tested on: 422866-222-R5-J1-PDC spheroids with HUVEC/MSC, viability
Test: Anticancer human tumor 422866-222-R5-J1-PDC patient-derived pancreatic adenocarcinoma cell line growth inhibition [GQUAD]
Conditions: second compound 3.16 µM; first compound 0.0999 µM; active compounds read low
Description: DNA G-quadruplex Stabilizer Agents in Combinations in Complex Spheroids A high-throughput screen of multi-cell type tumor spheroids was designed to identify active combinations of DNA G-quadruplex stabilizer agents and targeted small molecules. […] Compounds. […] If the clinical Cmax for an agent had not been determined, the highest concentration tested was 10 microM. […]
Entries and their measured viability, T/C follow.
Hi! Could you send only the number? It should be in %, unit omitted.

Guide cases for viability, T/C, answers given:
# molecule, quantity_unit, assay_result
records = [
    ("CCc1c2c(nc3ccc(O)cc13)-c1cc3c(c(=O)n1C2)COC(=O)[C@]3(O)CC + CN(C)c1ccc(Nc2c3ccc(NC(=O)CCN4CCCC4)cc3nc3cc(NC(=O)CCN4CCCC4)ccc23)cc1", "%", 63.6),
    ("Cn1ncnc1[C@H]1c2n[nH]c(=O)c3cc(F)cc(c23)N[C@@H]1c1ccc(F)cc1 + Cc1[nH]c2ccc(F)cc2c1-c1nc2c3cccnc3c3ncccc3c2[nH]1", "%", 94.3),
]

Consider the record given below.
In: I'd like to know its viability, T/C. The molecule in question is CC[C@@]1(O)C(=O)OCc2c1cc1n(c2=O)Cc2cc3c(CN(C)C)c(O)ccc3nc2-1 + Cc1[nH]c2ccc(F)cc2c1-c1nc2c3cccnc3c3ncccc3c2[nH]1
Out: 44.4

---

Test system: 422866-222-R5-J1-PDC spheroids with HUVEC/MSC, viability
Test: Anticancer human tumor 422866-222-R5-J1-PDC cell line growth inhibition [GQUAD];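 further: spheroids exposed to compounds for seven days before reading; percent viability relative to DMSO vehicle control taken as 100%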
Conditions: second compound 0.1 µM; first compound 1 µM; active compounds read low
Entries and their measured viability, T/C follow.
Hi! Could you send only the number? It should be in %, unit omitted.

Guide cases for viability, T/C, answers given:
# molecule, viability, T/C, %
records = [
    ("O=c1[nH]cc(F)c(=O)[nH]1 + CN(C)c1ccc(Nc2c3ccc(NC(=O)CCN4CCCC4)cc3nc3cc(NC(=O)CCN4CCCC4)ccc23)cc1", 75.5),
    ("C=CC(=O)N1CCN(c2nc(=O)n(-c3c(C)ccnc3C(C)C)c3nc(-c4c(O)cccc4F)c(F)cc23)C(C)C1 (stereo unspecified) + Cc1cnc(CNC(=O)c2c(=O)c3ccc(N4CCCN(C)CC4)nc3n3c2sc2ccccc23)cn1", 25.7),
    ("COc1ncnc(C2CC2)c1-c1ncc2cnn(Cc3ccc(-c4nc(C(F)(F)F)cn4C(C)C)cc3)c2n1 + CN(C)c1ccc(Nc2c3ccc(NC(=O)CCN4CCCC4)cc3nc3cc(NC(=O)CCN4CCCC4)ccc23)cc1", 94.9),
]

In: I'd like to know its viability, T/C. The molecule in question is CCCS(=O)(=O)Nc1ccc(F)c(C(=O)c2c[nH]c3ncc(-c4ccc(Cl)cc4)cc23)c1F + CN(C)c1ccc(Nc2c3ccc(NC(=O)CCN4CCCC4)cc3nc3cc(NC(=O)CCN4CCCC4)ccc23)cc1
Out: 137

In: Okay, and COc1ccc([C@@H](O)c2cc(-c3ncnc4cc(N5CCOCC5)ccc34)c(F)cc2Cl)nn1 + CN(C)c1ccc(Nc2c3ccc(NC(=O)CCN4CCCC4)cc3nc3cc(NC(=O)CCN4CCCC4)ccc23)cc1 ?
Out: 63.5

In: Okay, and CC1COCCN1c1cc(C2(O)CC3CCC(C2)O3)c2cnn(-c3ccn[nH]3)c2n1 (stereo unspecified) + CN(C)c1ccc(Nc2c3ccc(NC(=O)CCN4CCCC4)cc3nc3cc(NC(=O)CCN4CCCC4)ccc23)cc1 ?
Out: 108

In: Okay, and Nc1ccn(C2OC(CO)C(O)C2(F)F)c(=O)n1 (stereo unspecified) + CN(C)c1ccc(Nc2c3ccc(NC(=O)CCN4CCCC4)cc3nc3cc(NC(=O)CCN4CCCC4)ccc23)cc1 ?
Out: 43.5

In: Okay, and Nc1ccn(C2OC(CO)C(O)C2(F)F)c(=O)n1 (stereo unspecified) + Cc1cnc(CNC(=O)c2c(=O)c3ccc(N4CCCN(C)CC4)nc3n3c2sc2ccccc23)cn1 ?
Out: 48.6

In: Okay, and COc1cccc2c1C(=O)c1c(O)c3c(c(O)c1C2=O)CC(O)(C(=O)CO)CC3OC1CC(N)C(O)C(C)O1 (stereo unspecified) + Cc1[nH]c2ccc(F)cc2c1-c1nc2c3cccnc3c3ncccc3c2[nH]1 ?
Out: 53.4

In: Okay, and COc1cccc2c1C(=O)c1c(O)c3c(c(O)c1C2=O)CC(O)(C(=O)CO)CC3OC1CC(N)C(O)C(C)O1 (stereo unspecified) + Cc1cnc(CNC(=O)c2c(=O)c3ccc(N4CCCN(C)CC4)nc3n3c2sc2ccccc23)cn1 ?
Out: 48.7

In: Okay, and C#Cc1c(F)ccc2cc(O)cc(-c3ncc4c(N5CC6CCC(C5)N6)nc(OCC56CCCN5CC(F)C6)nc4c3F)c12 (stereo unspecified) + Cc1[nH]c2ccc(F)cc2c1-c1nc2c3cccnc3c3ncccc3c2[nH]1 ?
Out: 75.3

In: Okay, and O=C(NO)c1cnc(N2CCN(S(=O)(=O)c3ccc4ccccc4c3)CC2)nc1 + CN(C)c1ccc(Nc2c3ccc(NC(=O)CCN4CCCC4)cc3nc3cc(NC(=O)CCN4CCCC4)ccc23)cc1 ?
Out: 38.5

In: Okay, and COc1cccc2c1C(=O)c1c(O)c3c(c(O)c1C2=O)CC(O)(C(=O)CO)CC3OC1CC(N)C(O)C(C)O1 (stereo unspecified) + CN(C)c1ccc(Nc2c3ccc(NC(=O)CCN4CCCC4)cc3nc3cc(NC(=O)CCN4CCCC4)ccc23)cc1 ?
Out: 48.8

In: Okay, and CC1COCCN1c1cc(C2(S(C)(=N)=O)CC2)nc(-c2ccnc3[nH]ccc23)n1 (stereo unspecified) + CN(C)c1ccc(Nc2c3ccc(NC(=O)CCN4CCCC4)cc3nc3cc(NC(=O)CCN4CCCC4)ccc23)cc1 ?
Out: 78.9

In: Okay, and CC1COCCN1c1cc(-c2ccnn2C)c2ccnc(-c3ccn[nH]3)c2n1 (stereo unspecified) + CN(C)c1ccc(Nc2c3ccc(NC(=O)CCN4CCCC4)cc3nc3cc(NC(=O)CCN4CCCC4)ccc23)cc1 ?
Out: 36.2
